- TARGET UNDER TEST: T1, rhIL-1RAcP/Fc Chimera (human, UniProt Q9NPH3 21-359)
- T1 construct: also called P013_03; P013-03
- T1 sequence (looked up): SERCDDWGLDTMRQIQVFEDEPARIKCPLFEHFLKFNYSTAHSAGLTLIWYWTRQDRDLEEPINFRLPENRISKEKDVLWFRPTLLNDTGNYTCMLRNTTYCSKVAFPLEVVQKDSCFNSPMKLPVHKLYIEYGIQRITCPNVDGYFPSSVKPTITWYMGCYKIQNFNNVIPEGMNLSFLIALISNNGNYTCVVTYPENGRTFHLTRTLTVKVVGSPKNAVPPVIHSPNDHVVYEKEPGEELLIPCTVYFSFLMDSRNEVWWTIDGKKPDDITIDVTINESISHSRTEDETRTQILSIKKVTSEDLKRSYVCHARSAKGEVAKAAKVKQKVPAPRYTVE
- ASSAY METHOD TEXT: ELISA, primary supernatant, coated hu-IL-1RAcP-Fc
READOUT LABEL: hu-IL1RaP ELISA (OD)
Answer format: numeric, OD implied, no suffix.

{"BINDER": "P013.S.02.B.C01 (antibody, V domains shown, rabbit monoclonal antibody; also called P013.A.00109.C12) VH: QSVEESGGRLVTPGGSLTLTCTVSGFSLSVYAMGWFRQAPGKGLEWIGDIYTGSGSTWYASWAKGRFTISKTSTTVDLKITSPTTEDTATYFCAREIDAGYVGYGFNLWGQGTLVTVSS VL: AQALTQTPSSVSAAVGGTVTINCQSSQSVYSDYLVWYQQKPGQPPKLLIYQASKLASGVPSRFKGSGSGTQFTLTISGVQSDDAATYYCQATYSSTGWYRAFGGGTEVVVK", "NUMERIC READOUT": 3.5}

Exercise: May I ask what hu-IL1RaP ELISA (OD) has been recorded for P013.S.01.B.B02 (antibody, V domains shown, rabbit monoclonal antibody; also called P013.A.00014.B03) VH: LEQSGGGAEGGLVKPGGSLELCCKASGFSLSSSYWICWVRQAPGKGLEWIGCIYTGSSGITYYASWVNGRFTLSRDIDQSTGCLQLNSLTAADTAMYYCAKDGPSTLFNFWGQGTLVTVSS VL: ALVMTQTPSPVSAAVGGTVTINCQASEDIYSNLAWFQQKPGQPPKLLIYRASTLASGVPSRFKGSGSGTEFTLTISGLQSDDAATYYCLGVYTYPSADNAFGGGTEVVVR ?
Key: 3.6
